Target: T1, Tumor-associated calcium signal transducer 2 (UniProt P09758 27-323, limits assumed)
T1 sequence (looked up): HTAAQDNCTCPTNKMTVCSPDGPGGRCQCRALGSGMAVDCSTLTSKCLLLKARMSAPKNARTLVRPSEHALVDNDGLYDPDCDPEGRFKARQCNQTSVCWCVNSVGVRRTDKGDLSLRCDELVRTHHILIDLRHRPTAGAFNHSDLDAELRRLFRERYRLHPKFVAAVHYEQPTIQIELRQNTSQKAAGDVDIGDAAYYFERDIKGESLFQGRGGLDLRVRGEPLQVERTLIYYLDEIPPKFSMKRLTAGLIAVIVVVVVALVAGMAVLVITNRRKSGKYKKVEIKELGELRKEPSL
Assay: cell-based or functional assay
quantity.kind: IC50 (nM), in vitro killing activity, BXPC3 Cell
Write the value in nM as a bare number.

(Q) Form field: reported IC50 (nM), in vitro killing activity, BXPC3 Cell of FDA018-LE15 (antibody, human IgG1, kappa, V domains shown, linker-drug LE15 coupled to cysteine sulfhydryl groups after reduction of the interchain disulfide bonds; DAR 4.12 for the whole antibody; sites not stated) VH: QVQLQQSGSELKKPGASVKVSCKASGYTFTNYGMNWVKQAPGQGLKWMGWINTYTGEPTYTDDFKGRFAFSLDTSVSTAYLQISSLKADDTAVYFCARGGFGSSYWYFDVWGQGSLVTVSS VL: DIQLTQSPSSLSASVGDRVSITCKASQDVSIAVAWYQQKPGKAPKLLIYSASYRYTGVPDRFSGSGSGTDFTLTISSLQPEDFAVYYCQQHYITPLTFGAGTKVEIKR
(A) 0.96
